System: Bacillus subtilis
Test: cleaved RNA product abundance (RNA/gDNA barcode ratio) relative to median wild-type variant (ratio to wild type); higher = more accumulation of the downstream cleavage product
Settings: experiment (reporter, strain, medium): exp 4a: truncated aprE reporter, strain BJT201 with 2% xylose (RNase J1 expressed); cleavage site: cggR-gapA (positions -7 to +36 mutated)
ASSAY_ENDPOINT: cleaved RNA product abundance
Number only, no unit.

INSERT INTO assay_data (sequence_data, assay_value) VALUES
  ('ACAGACGAAGGAGCCGCAAAGAAGTTATTAAGGGATGAATAAATCCCTCAATATAAATATCTCTCACTTATTTAA', 0.537),
  ('ACAGACGAAGGAGCCGCATAGAAGTTATTAAGGGATGAATAATCCCTCATTATAAATATCTCTCACTTATTTAAA', 0.41),
  ('ACAGACGAAGGAGCCGCAAGGAAGTTATTAAGGGATGAATAATCCCTCAATATAAAAATCTCTCACTTATTTAAA', 0.35),
  ('ACAGACGAAGGAGCCGCAAAAAAGTTATTAAGGGATGAATAATCCCTCAATATACATATCTCTCACTTATTTAAA', 0.996),
  ('ACAGACGAAGGAGCCGCAAAGAAGTTACTAAAGGATGAATAATCCCTCAATATAAATATCTCTCACTTATTTAAA', 0.171),
  ('ACAGACGAAGGAGCCGCAAAGAAGTTATTAAGGGATGATTAATCCCACAATATAAATATCTCTCACTTATTTAAA', 0.276),
  ('ACAGACGAAGGAGCCGCAAAGAAGTTATTAAGGTATGAATAATCCCTCAATAGAAATATCTCTCACTTATTTAAA', 0.0725),
  ('ACAGACGAAGGAGCCGCAAAGCAATTATTAAGGGATGAATAATCCCTCAATATAAATATCTCTCACTTATTTAAA', 0.718),
  ('ACAGACGAAGGAGCCGCAAAGAAGTTATTAAGGATGAATAATCCCTCAATATAAATATCTCTCACTTATTTAAAG', 0.294),
  ('ACAGACGAAGGAGCCGCAAAAAAATTATTAAGGGATGAATAATCCCTCATTATAAATATCTCTCACTTATTTAAA', 0.267);

# `ACAGACGAAGGAGCCGCAATGAAGTTATTAAGGGATGAATAATCCCTCAATATAAATATCTCTCACTTATTTAAA` with Bacillus subtilis: cleaved RNA product abundance is 1.12

----------
Reported cleaved RNA product abundance values for the following sequences.
Tested on: Bacillus subtilis
Test: cleaved RNA product abundance (RNA/gDNA barcode ratio) relative to median wild-type variant (ratio to wild type); higher = more accumulation of the downstream cleavage product
Conditions: experiment (reporter, strain, medium): exp 2b: truncated aprE reporter, strain BJT200; cleavage site: cggR-gapA (positions -7 to +36 mutated)
Number only, no unit.

These recorded examples may help you get a feel for the data.
INSERT INTO results (sequence_data, assay_value) VALUES
  ('ACAGACGAAGGAGCCGCAATGAAGTTATTAAGGGATGAATAATCCCTCAATATTAATATCTCTCACTTATTTAAA', 0.226),
  ('ACAGACGAAGGAGCCGCAAAGAAGTTATTAAGGCATGAATAATCCCTAAATATAAATATCTCTCACTTATTTAAA', 0.114),
  ('ACAGACGAAGGAGCCGCAAAGAAGTTATTAACTGATGAATAATCCCTCAATATAAATATCTCTCACTTATTTAAA', 0.0892);

Lookup result for `ACAGACGAAGGAGCCGCAAGGAAGTTATTAAGGGATGAATCATCCCTCAATATAAATATCTCTCACTTATTTAAA` ; measured cleaved RNA product abundance: 0.824

Lookup result for `ACAGACGAAGGAGCCGCAAAGAAGTTATTAATGGTTGAATAATCCCTCAATATAAATATCTCTCACTTATTTAAA` ; measured cleaved RNA product abundance: 0.107

Lookup result for `ACAGACGAAGGAGCCGCAAAGAAGTTATTAAGGGATTAATAATCCCTCAATATAAATATCTCTCACTTATTTAAA` ; measured cleaved RNA product abundance: 0.996

Lookup result for `ACAGACGAAGGAGCCGCAAAGAAGTTATTAAGCTATGAATAATCCCTCAATATAAATATCTCTCACTTATTTAAA` ; measured cleaved RNA product abundance: 0.0874

Lookup result for `ACAGACGAAGGAGCCGCAAAGAAGTTATTAAAGGATGAATAATCCCACAATATAAATATCTCTCACTTATTTAAA` ; measured cleaved RNA product abundance: 0.113

Lookup result for `ACAGACGAAGGAGCCGCAAAGAAGTTATTAAGGGATGAATACTCCCTCCATATAAATATCTCTCACTTATTTAAA` ; measured cleaved RNA product abundance: 0.138

Lookup result for `ACAGACGAAGGAGCCGCAAAGAAGTTAATAAGTGATGAATAATCCCTCAATATAAATATCTCTCACTTATTTAAA` ; measured cleaved RNA product abundance: 0.167

Lookup result for `ACAGACGAAGGAGCCGCAAAGAAGATATTAAGGGATGAATAATCCCTCAAAATAAATATCTCTCACTTATTTAAA` ; measured cleaved RNA product abundance: 0.15

Lookup result for `ACAGACGAAGGAGCCGCAAAGAAGTAATTAAGGGATCAATAATCCCTCAATATAAATATCTCTCACTTATTTAAA` ; measured cleaved RNA product abundance: 0.181

Lookup result for `ACAGACGAAGGAGCCGCAAAGAAGTTATTAAGGGATGAATAATCCCGCAATATAAATATCTCTCACTTATTTAAA` ; measured cleaved RNA product abundance: 0.194

Lookup result for `ACAGACGAAGGAGCCGCAAAGAAGTTATTAAGGGATGAATAATCATTCAATATAAATATCTCTCACTTATTTAAA` ; measured cleaved RNA product abundance: 0.171

Lookup result for `ACAGACGAAGGAGCCGCAAAGAAGTTATTAGGGGATGAATAATCACTCAATATAAATATCTCTCACTTATTTAAA` ; measured cleaved RNA product abundance: 0.114

Lookup result for `ACAGACGAAGGAGCCGCAAAGAATTTAATAAGGGATGAATAATCCCTCAATATAAATATCTCTCACTTATTTAAA` ; measured cleaved RNA product abundance: 0.25

Lookup result for `ACAGACGAAGGAGCCGCAAAGAAGTTATTAAGGGATTAATAATCCCTCAATCTAAATATCTCTCACTTATTTAAA` ; measured cleaved RNA product abundance: 0.164

Values from the supplement of paper PMC11780869
